Provenance of the data: the supplement of paper PMC10127200

- Test system: 786-O
- protocol.summary: Euclidean distance of Cell Painting phenotypic profile (signed KS, 77 features) to DMSO centroid (dimensionless distance); 5 or 10 uM (library dependent); higher = stronger phenotypic change vs DMSO (phenoactivity)
- measurement.conditions: 48 h
Where a name gives a salt, the structure may show the parent alone.
# Euclidean distance per record follows

For orientation, consider the following solved cases.
INSERT INTO results (molecule, recorded_value) VALUES
  ('CCN(CC)CC(=O)Oc1ccc(NC(C)=O)cc1 [Propacetamol hydrochloride]', 1.3),
  ('CCOC(=O)C1=C(C)NC(C)=C(C(=O)OC)C1c1cccc([N+](=O)[O-])c1 (stereo not drawn) [Nitrendipine]', 1),
  ('Cn1c(=O)c2c(ncn2CCO)n(C)c1=O [Etofylline]', 1.39),
  ('Oc1cc(O)c2c(c1)O[C@H](c1ccc(O)c(O)c1)[C@H](O)C2 [(-)Epicatechin]', 1.1),
  ('NCCCC[C@H](NC(=O)[C@@H]1CCCN1C(=O)[C@@H]1CSSC[C@H](NC(=O)CNC(=O)CNC(=O)CN)C(=O)N[C@@H](Cc2ccc(O)cc2)C(=O)N[C@@H](Cc2ccccc2)C(=O)N[C@@H](CCC(N)=O)C(=O)N[C@@H](CC(N)=O)C(=O)N1)C(=O)NCC(N)=O [Terlipressin Acetate]', 1.69);

Q) What value of Euclidean distance on 786-O does Cc1c(-c2ccc(O)cc2)n(Cc2ccc(OCCN3CCCCCC3)cc2)c2ccc(O)cc12 [Bazedoxifene Acetate] have?
A) 4.76

Q) What value of Euclidean distance on 786-O does NC(=N\CCCCCC/N=C(N)/N=C(\N)Nc1ccc(Cl)cc1)/N=C(\N)Nc1ccc(Cl)cc1 [Chlorhexidine diacetate] have?
A) 2.69

Q) What value of Euclidean distance on 786-O does OC[C@H]1O[C@H](O[C@H]2O[C@H](CO)[C@@H](O)[C@H](O)[C@H]2O)[C@H](O)[C@@H](O)[C@@H]1O [D-(+)-Trehalose dihydrate] have?
A) 0.894
